System: Mycobacterium tuberculosis
procedure.summary: Antitubercular activity against multi drug resistance Mycobacterium tuberculosis V2475 by MABA assay
Assay type: functional
measured.metric: MIC=<90 (µg/mL)
Reply with just the number (in µg/mL).

compound: CC1COc2c(N3CCN(C)CC3)c(F)cc3c(=O)c(C(=O)O)cn1c23 (stereo not given)
measured.metric: MIC=<90
reported.result: 0.5
//
compound: NNC(=O)c1ccncc1
measured.metric: MIC=<90
reported.result: 16
//
compound: NC[C@H]1O[C@H](O[C@H]2[C@H](O)[C@@H](O[C@H]3O[C@H](CO)[C@@H](O)[C@H](N)[C@H]3O)[C@H](N)C[C@@H]2N)[C@H](O)[C@@H](O)[C@@H]1O
measured.metric: MIC=<90
reported.result: 2
//
compound: O=c1[nH]c2cc(O)ccc2c2oc3ccc(O)c(CN4CCCCC4)c3c12
measured.metric: MIC=<90
reported.result: 0.0625

# ---- query compound ----
I would be grateful if you could share the reported MIC=<90 for `CO[C@H]1/C=C/O[C@@]2(C)Oc3c(C)c(O)c4c(O)c(c(/C=N/N5CCN(C)CC5)c(O)c4c3C2=O)NC(=O)/C(C)=C\C=C\[C@H](C)[C@H](O)[C@@H](C)[C@@H](O)[C@@H](C)[C@H](OC(C)=O)[C@@H]1C` . 4

* * *

Listed here: items and their measured MIC=<90.
Test system: Mycobacterium tuberculosis
procedure.summary: Antitubercular activity against isoniazid/rifampin resistance Mycobacterium tuberculosis KZN494 by MABA assay
Format: functional
Reply with just the number (in µg/mL).

Before answering, review these 4 worked examples.
compound: NNC(=O)c1ccncc1 [ISONIAZID]
MIC=<90, µg/mL: 16
//
compound: CC1COc2c(N3CCN(C)CC3)c(F)cc3c(=O)c(C(=O)O)cn1c23 (stereo not given) [OFLOXACIN]
MIC=<90, µg/mL: 0.5
//
compound: CO[C@H]1/C=C/O[C@@]2(C)Oc3c(C)c(O)c4c(O)c(c(/C=N/N5CCN(C)CC5)c(O)c4c3C2=O)NC(=O)/C(C)=C\C=C\[C@H](C)[C@H](O)[C@@H](C)[C@@H](O)[C@@H](C)[C@H](OC(C)=O)[C@@H]1C [RIFAMPIN]
MIC=<90, µg/mL: 128
//
compound: O=c1[nH]c2cc(O)ccc2c2oc3ccc(O)c(CN4CCCCC4)c3c12
MIC=<90, µg/mL: 0.0313

I would be grateful if you could share the reported MIC=<90 for NC[C@H]1O[C@H](O[C@H]2[C@H](O)[C@@H](O[C@H]3O[C@H](CO)[C@@H](O)[C@H](N)[C@H]3O)[C@H](N)C[C@@H]2N)[C@H](O)[C@@H](O)[C@@H]1O [KANAMYCIN] . 2

* * *

Tested on: Mycobacterium tuberculosis
procedure.summary: Antitubercular activity against extensively drug resistance Mycobacterium tuberculosis R506 XDR by MABA
Assay type: functional
measured.metric: MIC=<90 (µg/mL)
Reply with just the number (in µg/mL).

I would be grateful if you could share the reported MIC=<90 for `C[C@H]1COc2c(N3CCN(C)CC3)c(F)cc3c(=O)c(C(=O)O)cn1c23.C[C@H]1COc2c(N3CCN(C)CC3)c(F)cc3c(=O)c(C(=O)O)cn1c23.O` . 2

I would be grateful if you could share the reported MIC=<90 for `NNC(=O)c1ccncc1` . 8

I would be grateful if you could share the reported MIC=<90 for `O=c1[nH]c2cc(O)ccc2c2oc3ccc(O)c(CN4CCCCC4)c3c12` . 0.0156

I would be grateful if you could share the reported MIC=<90 for CC1COc2c(N3CCN(C)CC3)c(F)cc3c(=O)c(C(=O)O)cn1c23 (stereo unspecified) . 4
